Where a name gives a salt, the structure may show the parent alone.
Attribute measured: melting point

Sample answers from the record:
[ask] Output measured melting point for this item: COC(=O)/C=C/c1ccc(OC(=O)[C@@]2(C)CC[C@]3(C)CC[C@]4(C)C(=CC(=O)[C@@H]5[C@@]6(C)CC[C@H](OC(=O)[C@@H](N)CC[Se]C)C(C)(C)[C@@H]6CC[C@]54C)[C@@H]3C2)c(OC)c1 (as salt: hydrochloride) [Compound 42]
[reply] 210 to 213 °C

[ask] Output measured melting point for this item: CCOC(=O)/C=C/c1ccc(OC)c(OC(=O)[C@@]2(C)CC[C@]3(C)CC[C@]4(C)C(=CC(=O)[C@@H]5[C@@]6(C)CC[C@H](OC(=O)[C@@H](N)CC[Se]C)C(C)(C)[C@@H]6CC[C@]54C)[C@@H]3C2)c1 (as salt: hydrochloride) [Compound 52]
[reply] 196 to 198 °C

[ask] Output measured melting point for this item: COC(=O)/C=C/c1ccc(OC(=O)[C@@]2(C)CC[C@]3(C)CC[C@]4(C)C(=CC(=O)[C@@H]5[C@@]6(C)CC[C@H](OC(=O)[C@@H](N)CCSC)C(C)(C)[C@@H]6CC[C@]54C)[C@@H]3C2)c(OC)c1 (as salt: hydrochloride) [Compound 41]
[reply] 203 to 205 °C

[ask] Output measured melting point for this item: COC(=O)/C=C/c1cccc(OC(=O)[C@@]2(C)CC[C@]3(C)CC[C@]4(C)C(=CC(=O)[C@@H]5[C@@]6(C)CC[C@H](O)C(C)(C)[C@@H]6CC[C@]54C)[C@@H]3C2)c1 [Compound 23]
[reply] 188 to 190 °C

[ask] Output measured melting point for this item: CCOC(=O)/C=C/c1cccc(OC(=O)[C@@]2(C)CC[C@]3(C)CC[C@]4(C)C(=CC(=O)[C@@H]5[C@@]6(C)CC[C@H](OC(=O)[C@@H](N)CC[Se]C)C(C)(C)[C@@H]6CC[C@]54C)[C@@H]3C2)c1 (as salt: hydrochloride) [Compound 56]
[reply] 191 to 194 °C

***
[ask] Output measured melting point for this item: COC(=O)/C=C/c1ccc(OC)c(OC(=O)[C@@]2(C)CC[C@]3(C)CC[C@]4(C)C(=CC(=O)[C@@H]5[C@@]6(C)CC[C@H](OC(=O)[C@@H](N)CCSC)C(C)(C)[C@@H]6CC[C@]54C)[C@@H]3C2)c1 (as salt: hydrochloride) [Compound 49]
[reply] 199 to 201 °C

[ask] Output measured melting point for this item: CCOC(=O)/C=C/c1ccc(OC)c(OC(=O)[C@@]2(C)CC[C@]3(C)CC[C@]4(C)C(=CC(=O)[C@@H]5[C@@]6(C)CC[C@H](O)C(C)(C)[C@@H]6CC[C@]54C)[C@@H]3C2)c1 [Compound 22]
[reply] 210 to 213 °C

[ask] Output measured melting point for this item: COC(=O)/C=C/c1ccc(OC(=O)[C@@]2(C)CC[C@]3(C)CC[C@]4(C)C(=CC(=O)[C@@H]5[C@@]6(C)CC[C@H](OC(=O)[C@@H](N)CCSC)C(C)(C)[C@@H]6CC[C@]54C)[C@@H]3C2)cc1 (as salt: hydrochloride) [Compound 45]
[reply] 205 to 207 °C
